Source: patent US20140179681A1

SYSTEM_UNDER_TEST: EGFR (Homo sapiens, UniProt P00533)
Construct: host or cells: A431
Sequence (P00533 25-1210): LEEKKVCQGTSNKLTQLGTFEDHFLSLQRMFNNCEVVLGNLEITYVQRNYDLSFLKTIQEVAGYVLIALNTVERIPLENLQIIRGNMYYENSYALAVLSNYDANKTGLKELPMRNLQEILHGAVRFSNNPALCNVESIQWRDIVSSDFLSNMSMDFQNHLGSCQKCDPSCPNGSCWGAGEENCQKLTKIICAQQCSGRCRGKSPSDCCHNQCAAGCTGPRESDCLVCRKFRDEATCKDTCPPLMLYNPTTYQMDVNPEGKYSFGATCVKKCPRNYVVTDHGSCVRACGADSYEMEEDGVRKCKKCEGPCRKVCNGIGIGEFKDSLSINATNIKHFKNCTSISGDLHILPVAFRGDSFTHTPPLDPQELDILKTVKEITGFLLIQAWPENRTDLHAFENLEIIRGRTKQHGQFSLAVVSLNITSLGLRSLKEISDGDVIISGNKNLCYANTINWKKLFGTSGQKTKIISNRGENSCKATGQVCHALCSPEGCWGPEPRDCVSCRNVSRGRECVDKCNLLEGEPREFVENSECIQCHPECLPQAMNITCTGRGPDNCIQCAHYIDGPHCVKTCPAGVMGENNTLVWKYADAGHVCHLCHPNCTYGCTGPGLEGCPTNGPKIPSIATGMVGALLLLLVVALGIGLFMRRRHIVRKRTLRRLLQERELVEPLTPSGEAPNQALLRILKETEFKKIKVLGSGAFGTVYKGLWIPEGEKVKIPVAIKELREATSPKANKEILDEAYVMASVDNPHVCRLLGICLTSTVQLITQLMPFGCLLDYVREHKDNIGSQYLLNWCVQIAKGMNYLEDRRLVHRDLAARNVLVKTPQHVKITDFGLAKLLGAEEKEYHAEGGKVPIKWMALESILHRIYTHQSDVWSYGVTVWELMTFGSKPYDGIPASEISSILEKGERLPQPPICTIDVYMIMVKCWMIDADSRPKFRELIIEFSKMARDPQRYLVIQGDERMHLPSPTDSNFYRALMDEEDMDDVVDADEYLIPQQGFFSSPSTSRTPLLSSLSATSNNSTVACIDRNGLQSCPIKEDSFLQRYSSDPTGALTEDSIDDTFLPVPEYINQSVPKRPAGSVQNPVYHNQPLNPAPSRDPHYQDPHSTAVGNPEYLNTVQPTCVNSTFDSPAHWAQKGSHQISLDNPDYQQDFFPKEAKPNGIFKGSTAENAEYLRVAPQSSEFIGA
EXPERIMENTAL_DETAILS: EGFR in-cell Western (ICW) screening protocol (EGFR inhibition assay)
Assay type: cell-based
Design: unit not given here
EXPERIMENTAL_SETUP: ICW assay, run 2
Procedure: The following example describes general EGFR in-cell Western (ICW) screening protocol. Methods are according to Chen et al. (2005) Analytical Biochemistry 338, 136-142 (incorporated herein by reference), except as otherwise noted. Cell Plates: A431 cells (ATCC # CRL-1555) were grown in Dulbecco's Modified Eagle Medium (DMEM; ATCC #30-2002) supplemented with 10% fetal bovine serum, 105 units/ml pen/strep (Invitrogen #15140155) and 2.1 mM L-glutamine (ATCC #30-2214). […]
Where a name gives a salt, the structure may show the parent alone.
Category scheme (ICW 2): A (below 30), B (30 to below 50), C (50 or more)

Study these solved cases before continuing.
## Task Determine which band this compound sits in: CCCc1c(C)nc(Nc2nc(C)c3cc(C)ccc3n2)[nH]c1=O [compound 12667]
## Result B

## Task How about this compound: Cc1nc(Nc2nc(CSc3nc4ccccc4[nH]3)cc(=O)[nH]2)nc2ccccc12 [compound 11582]
## Result B

## Task What about Cc1nc(Nc2nc(CSc3ccccn3)cc(=O)[nH]2)nc2ccccc12 [12623 + TFA] ?
## Result B

## Task Also CC1(C)CC(=O)c2cnc(Nc3nc(-c4ccccc4)c4cc(Cl)ccc4n3)nc2C1 [11807 + TFA] , if possible.
## Result A

## Task Similarly, Cc1cc(C)c2nc(NC3=NC(c4ccccc4)CC(=O)N3)nc(C)c2c1 (stereo not drawn) [AD4-12641 + TFA] ?
## Result C

## Task Same question, Cc1cc(C)c2nc(Nc3nc(=O)c(C)c(C)[nH]3)nc(C)c2c1 [12645 + TFA] this time
## Result C

## Task Again, but for Cc1ccc(SCc2cc(=O)[nH]c(Nc3nc(C)c4cccc(C)c4n3)n2)cc1 [11707 + TFA]
## Result B

## Task What about this compound? Cc1ccnc(Nc2nc(-c3ccccc3)c3cc(Cl)ccc3n2)n1 [compound 11455]
## Result A

## Task How about CCCc1cc(=O)[nH]c(Nc2nc(C)c3ccc(OC)cc3n2)n1 [12669 + TFA] ?
## Result B

## Task Would you mind doing COc1ccc2c(C)nc(Nc3nc(C)cc(-c4ccccc4)n3)nc2c1 [compound 12676] as well?
## Result A

Others:
## Task Kindly identify the class of C=CCc1c(C)nc(Nc2nc(C)c3cccc(OCC)c3n2)[nH]c1=O [compound 12737] .
## Result B

## Task Cool, now CCCCc1c(C)nc(Nc2nc(C)c3cc(C)ccc3n2)[nH]c1=O [compound 11498]
## Result C

## Task Could you do the same for Cc1ccc2c(C)nc(Nc3nc(CSc4nnc(C)s4)cc(=O)[nH]3)nc2c1 [compound 11469] , please?
## Result A

## Task Again, but for Cc1ccc(-c2cc(=O)[nH]c(Nc3nc(C)c4ccc(C)cc4n3)n2)cc1 [12604 + TFA]
## Result B

## Task Do the same for CCCc1cc(=O)[nH]c(Nc2nc(C)c3cc(C)c(C)cc3n2)n1 [12654 + TFA] please
## Result B

## Task Another compound to look at: Cc1cc(C)nc(Nc2nc(N)c3ccccc3n2)n1 [compound 11829]
## Result C

## Task Next compound: Cc1nc(Nc2nc(C)c3cccc(C)c3n2)[nH]c(=O)c1Cc1ccccc1 [12611 + TFA]
## Result B

## Task Another: CCOc1cccc2c(C)nc(Nc3nc(C)c(Cc4ccc(C)cc4)c(=O)[nH]3)nc12 [11753 + TFA]
## Result B

====

SYSTEM_UNDER_TEST: EGFR (Homo sapiens, UniProt P00533)
Construct: host or cells: A431
EXPERIMENTAL_DETAILS: EGFR in-cell Western (ICW) screening protocol (EGFR inhibition assay)
Assay type: cell-based
Parameters: unit not given here
EXPERIMENTAL_SETUP: ICW assay, run 2
Counter-ions that a name gives are not always drawn.
For each record, write down the corresponding ICW 2.
One number for each entry.

## Task Item CCOc1ccc2nc(Nc3ncc4c(n3)CC(c3ccco3)CC4=O)nc(C)c2c1 (stereo not drawn) [11674 + TFA] has what recorded ICW 2?
## Result 18.16

## Task Also CCCCc1c(C)nc(Nc2nc(C)c3ccccc3n2)[nH]c1=O [12743 + TFA] , if possible.
## Result 42.12

## Task Okay, and Cc1ccc2c(C)nc(Nc3nc4c(c(-c5ccccc5)n3)CCCC4)nc2c1 [compound 11777] ?
## Result 13.81

## Task What about this compound? CCOc1cccc2c(C)nc(Nc3nc(CSc4ccc(C)cc4)cc(=O)[nH]3)nc12 [compound 11755]
## Result 33.21

## Task How about CCc1ccc2nc(Nc3nc(=O)cc(CSc4nc5ccccc5s4)[nH]3)nc(C)c2c1 [11300 + TFA] ?
## Result 26.12

## Task Next compound: CCCCc1c(C)nc(Nc2nc(C)c3ccccc3n2)[nH]c1=O [12603 + TFA]
## Result 29.15

## Task Queued: COCc1cc(=O)nc(Nc2nc(C)c3cc(C)cc(C)c3n2)[nH]1 [11625 + TFA]
## Result 18.94

## Task Now give it for CCCCCc1c(C)nc(Nc2nc(C)c3ccc(C)cc3n2)[nH]c1=O [11730 + TFA] too.
## Result 30.67

Further cases:
## Task Fill in the blank: the reported ICW 2 of CCc1ccc2nc(Nc3nc(-c4cccc(OC)c4)cc(=O)[nH]3)nc(C)c2c1 [compound 11503] is ____.
## Result 38.53

====

SYSTEM_UNDER_TEST: EGFR (Homo sapiens)
Construct: host or cells: A431
EXPERIMENTAL_DETAILS: EGFR in-cell Western (ICW) screening protocol (EGFR inhibition assay)
Type: cell-based
EXPERIMENTAL_SETUP: Table 10; % Inhibition of EGF dependent EGFR phosphorylation in A431 cells; compound 125 μM in assay
MEASURED_ENDPOINT: ICW assay
Numbers only.

## Task What measured ICW assay goes with O=S(=O)(Nc1ccccc1)c1ccc(NC(=S)Nc2cc(Cl)ccc2Cl)cc1 ?
## Result 25.0542

## Task Further, for Cc1cccc(NC(=S)Nc2ccc(S(=O)(=O)Nc3cc(Cl)cc(Cl)c3)cc2)c1 ?
## Result 64.2647

## Task Here is the next molecule: CCC(C)c1ccc(NC(=S)Nc2ccc(S(=O)(=O)Nc3c(C)cc(C)cc3C)cc2)cc1 (centres unmarked)
## Result 50.7196

## Task Can you handle CC(C)c1ccc(NC(=S)Nc2ccc(S(=O)(=O)Nc3cc(Cl)cc(Cl)c3)cc2)cc1 next?
## Result 82.3761

Provide ICW assay for all items below, preserving their order.
1. COc1ccc(NC(=S)Nc2ccc(S(=O)(=O)Nc3ccc(Cl)cc3)cc2)cc1OC
2. CCOc1ccc(NS(=O)(=O)c2ccc(NC(=S)Nc3ccccc3)cc2)cc1
3. COC(=O)c1sc2cc(NC(=S)Nc3ccc(S(=O)(=O)Nc4c(C)cc(C)cc4C)cc3)ccc2c1Cl

## Result
[34.1311, 34.1727, 42.3275]

## Task Entry Cc1cc(C)cc(NC(=S)Nc2ccc(S(=O)(=O)Nc3ccc(Cl)cc3)cc2)c1 : reported ICW assay = ?
## Result 28.9126

====

Test system: epithelial carcinoma A431 cell line
EXPERIMENTAL_DETAILS: MTT Cell Proliferation Assay, A431 cells
Assay type: cell-based
EXPERIMENTAL_SETUP: A431 cells, first value of cell
Where a name gives a salt, the structure may show the parent alone.
MEASURED_ENDPOINT: MTT Assay IC50(A431/MDBK): A431

## Task Item under review: CCOc1cccc2c(C)nc(Nc3nc(C)c(Cc4ccc(C)cc4)c(=O)[nH]3)nc12 [11753 + TFA] . Reported MTT Assay IC50(A431/MDBK): A431?
## Result NOT ACTIVE

## Task Consider next the molecule Cc1cc(C)c2nc(NC3=NC(c4ccccc4)CC(=O)N3)nc(C)c2c1 (stereo not shown) [AD4-12641 + TFA] in the same way.
## Result NOT ACTIVE

## Task Also Cc1cc(C)c2nc(Nc3nc(CSc4ccc(Cl)cc4)cc(=O)[nH]3)nc(C)c2c1 [11726 + TFA] ?
## Result NOT ACTIVE

====

SYSTEM_UNDER_TEST: EGFR (Homo sapiens, UniProt P00533)
Construct: host or cells: A431
EXPERIMENTAL_DETAILS: EGFR in-cell Western (ICW) screening protocol (EGFR inhibition assay)
Assay type: cell-based
EXPERIMENTAL_SETUP: Table 11; % Inhibition of EGF dependent EGFR phosphorylation in A431 cells; compound 125 μM in assay
Kindly state ICW Screen for each of the entries shown.
One number for each entry.

Below: 3 compounds and their reported ICW Screen.
## Task ICW Screen lookup needed for CCc1cc2c(CN3CCN(C(c4ccccc4)c4ccccc4)CC3)cc(=O)oc2cc1O , thanks.
## Result −44.55

## Task Please do the same for CC(C)c1ccc2oc(=O)cc(CN3CCN(Cc4ccc5c(c4)OCO5)CC3)c2c1 as well.
## Result 16.772

## Task What do you get for CC(C)c1ccc2oc(=O)cc(CN3CCN(C/C=C/c4ccccc4)CC3)c2c1 ?
## Result 53.35

The following compounds each have a reported value; give each one's ICW Screen.
1. CCc1cc2c(CN3CCN(Cc4ccccc4)CC3)cc(=O)oc2cc1O [AD4-10186]
2. COc1ccc(N2CCN(Cc3cc(=O)oc4cc5c(cc34)OCO5)CC2)cc1
3. COc1ccc(N2CCN(Cc3cc(=O)oc4c(C)c(O)ccc34)CC2)cc1
4. O=c1cc(CN2CCN(Cc3ccc4c(c3)OCO4)CC2)c2cc3c(cc2o1)CCC3

## Result
1. 47.518
2. −10.6
3. −1.007
4. 34.742

Can you give me ICW Screen for all of these, one by one?
1. O=c1cc(CN2CCN(Cc3ccc4c(c3)OCO4)CC2)c2cc(Cl)c(O)cc2o1
2. Cc1cc(C)c2oc(=O)cc(CN3CCN(Cc4ccc5c(c4)OCO5)CC3)c2c1

## Result
1: −3.062; 2: 45.85
